subject of test: 5-hydroxytryptamine receptor 2A (Homo sapiens)
Sequence (P28223 whole entry): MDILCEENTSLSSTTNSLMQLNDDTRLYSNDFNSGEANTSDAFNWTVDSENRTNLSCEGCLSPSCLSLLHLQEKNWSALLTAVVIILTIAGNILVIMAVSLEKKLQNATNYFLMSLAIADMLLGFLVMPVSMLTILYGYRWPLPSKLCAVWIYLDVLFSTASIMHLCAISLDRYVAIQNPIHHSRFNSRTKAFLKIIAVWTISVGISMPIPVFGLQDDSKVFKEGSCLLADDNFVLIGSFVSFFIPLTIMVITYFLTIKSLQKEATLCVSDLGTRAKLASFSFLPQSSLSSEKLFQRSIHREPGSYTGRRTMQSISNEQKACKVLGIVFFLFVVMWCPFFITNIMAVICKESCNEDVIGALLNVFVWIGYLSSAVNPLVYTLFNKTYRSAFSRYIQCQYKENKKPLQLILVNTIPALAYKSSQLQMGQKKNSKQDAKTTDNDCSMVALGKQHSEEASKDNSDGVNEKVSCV
Format: functional, cell-based

# molecule, AC50
measured = [
    ("CN1CCCN=C1/C=C/c1cccc(O)c1 [OXANTEL]", "> 30 µM"),
    ("CC(C)/N=c1\\cc2n(-c3ccc(Cl)cc3)c3ccccc3nc-2cc1Nc1ccc(Cl)cc1 [CLOFAZIMINE]", "> 30 µM"),
    ("CC1NCCOC1c1ccccc1 (stereo not drawn) [PHENMETRAZINE]", "> 30 µM"),
    ("CN(C)CCOC(c1ccc(Cl)cc1)c1ccccn1 (stereo not drawn) [CARBINOXAMINE]", "> 30 µM"),
    ("CC(C)(C)NCC(O)COc1ccccc1C#N (stereo not drawn) [BUNITROLOL]", "> 30 µM"),
    ("Nc1nc(Cl)nc2c1ncn2[C@@H]1O[C@H](CO)[C@@H](O)[C@@H]1F [CLOFARABINE]", "> 30 µM"),
    ("C[C@]12CCC(=O)C=C1CC[C@H]1[C@@H]3CC[C@](O)(C(=O)CO)[C@@]3(C)C[C@H](O)[C@@]12F [FLUDROCORTISONE]", "> 30 µM"),
    ("COc1ccc(-c2cc(=S)ss2)cc1 [ANETHOLTRITHION]", "> 30 µM"),
    ("C[C@]12C=CC(=O)C=C1C(Cl)=C[C@@H]1[C@@H]2[C@@H](O)C[C@@]2(C)[C@H]1CC[C@]2(O)C(=O)CO [CLOPREDNOL]", "> 30 µM"),
    ("CC(C)C[C@H](NC(=O)[C@H](Cc1ccccc1)NC(=O)c1cnccn1)B(O)O [BORTEZOMIB]", "> 30 µM"),
    ("CCN1C(=O)NC(c2ccccc2)C1=O (stereo not drawn) [ETHOTOIN]", "> 30 µM"),
    ("CO/N=C(\\C(=O)N[C@@H]1C(=O)N2C(C(=O)O)=C(CSc3nc(C)c(CC(=O)O)s3)CS[C@H]12)c1csc(N)n1 [CEFODIZIME]", "> 30 µM"),
    ("OCC(O)COc1ccc(Cl)cc1 (stereo not drawn)", "> 10 µM"),
    ("CCC1(CC)C(=O)NC(=O)N(C)C1=O [METHARBITAL]", "> 10 µM"),
    ("CCN(CC)Cc1nccn1-c1ccc([N+](=O)[O-])cc1C(=O)c1ccccc1Cl [NIZOFENONE]", "> 30 µM"),
    ("COc1ccc2c3c1O[C@H]1C(=O)CC[C@H]4[C@@H](C2)N(C)CC[C@]314 [HYDROCODONE]", "> 30 µM"),
    ("CCCCCCOC(=O)NC(=N)c1ccc(NCc2nc3cc(C(=O)N(CCC(=O)OCC)c4ccccn4)ccc3n2C)cc1 [DABIGATRAN ETEXILATE]", "> 30 µM"),
    ("CS(=O)(=O)NC(=O)CCC/C=C\\C[C@H]1C(=O)C[C@@H](O)[C@@H]1/C=C/[C@@H](O)COc1ccccc1 [SULPROSTONE]", "> 30 µM"),
]
